- Tested on: primary hepatocytes isolated from rats
- Assay Details: Hepatocyte protective effect against substances deriving hepatocyte toxicity (WST-1 viability)
- Assay type: cell-based
- Experimental Parameters: Rattus norvegicus, Hepatocyte, Actinomycin D 100 ng/mL, 24-48 h, read-out: EC50, protective effect against the substances deriving hepatotoxicity
Metric Name: EC50
Give the figure together with its unit, number first.

Input: Data request, read-out EC50, for "Cc1cc(NC2CCOCC2)c2[nH]c(-c3ccccc3)cc2c1"
Output: 0.17 µM

* * *

- System: cardiac cells (H9C2, white rat cardiomyocyte)
- Assay Details: Protective effect when tBHP was treated on cardiac cells (SRB method)
- Type: cell-based
- Experimental Parameters: tBHP 400 uM, 2 h
pEC50: −log10 of the molar value.
Metric Name: pEC50

Worked set:
Compound | pEC50
O=S1(=O)CCN(Cc2cc(NCC3CCOCC3)c3[nH]c(-c4ccccc4)c(Br)c3c2)CC1 [Example 74] | ≥ 6.70
O=C(O)[C@@H]1CCCN1C(=O)c1cc(NC2CCCC2)c2[nH]c(-c3ccccc3)cc2c1 [Example 117] | ≥ 6.70
CS(=O)(=O)N1CCC(Nc2cc(CN3CCS(=O)(=O)CC3)cc3cc(-c4ccccc4)[nH]c23)CC1 [Example 97] | ≥ 6.70

Input: Data request, read-out pEC50, for CC(=O)Nc1ccc(-c2cc3cc(N4CCS(=O)(=O)CC4)cc(N(C4CCCC4)C4CCCC4)c3[nH]2)cc1 [Example 86]
Output: 6.30

Data origin: patent US9000028B2
